# Lookup of reported SIF keyed by entry
assay: Stability in Simulated Intestinal Fluid (SIF); assay type: in vitro ADME; parameters: key: % parent compound remaining relative to 0-minute sample; conditions: % remaining at 1 h; SIF with pancreatin pH 6.8, 2 μg/mL, 37° C.
Measured property: SIF (%)

INSERT INTO results (compound, measured_property, reported_value) VALUES
  ('CCS(=O)(=O)n1ccc2c1c(=O)[nH]c(=S)n2CCOC(C)C [Example 77]', 'SIF', 96),
  ('CC(C)OCCn1c2nc(=O)c3c1ccn3COC(=O)C(C)(C)CCCCC(C)(C)C(=O)OCS2 [Example 119]', 'SIF', 98),
  ('CC(C)OCCn1c(=S)n(COC(=O)c2ccccc2)c(=O)c2c1ccn2COC(=O)c1ccccc1 [Example 117]', 'SIF', 79),
  ('CC(C)OCCn1c(=S)[nH]c(=O)c2c1ccn2COCC[Si](C)(C)C [Example 72]', 'SIF', 98),
  ('CC(C)OCCn1c(=S)[nH]c(=O)c2c1ccn2COC(=O)[C@@H]1CCC(=O)N1 [Example 86]', 'SIF', 17),
  ('CC(C)OCCn1c(=S)n(COCC[Si](C)(C)C)c(=O)c2[nH]ccc21 [Example 70]', 'SIF', 99),
  ('CC(C)OCCn1c(=S)[nH]c(=O)c2c1ccn2COC(=O)CCCCNC(=O)[C@@H](NC(=O)OC(C)(C)C)C(C)C [Example 10]', 'SIF', 76),
  ('COc1ccc(CSc2nc(=O)c3[nH]ccc3n2CCOC(C)C)cc1 [Example 74]', 'SIF', 97),
  ('CC(C)OCCn1c(SCOCC[Si](C)(C)C)nc(=O)c2c1ccn2COCC[Si](C)(C)C [Example 73]', 'SIF', 55),
  ('COCCOCCOC(=O)OCn1c(=O)c2c(ccn2COC(=O)OCCOCCOC)n(CCOC(C)C)c1=S [Example 106]', 'SIF', 1),
  ('CC(C)OCCn1c(=S)[nH]c(=O)c2c1ccn2COC(=O)N[C@H](C(=O)O)C(C)C [Example 109]', 'SIF', 96),
  ('COCCOCCN(C)C(=O)OCSc1nc(=O)c2[nH]ccc2n1CCOC(C)C [Example 88]', 'SIF', 64),
  ('CC(C)OCCn1c(=S)[nH]c(=O)c2c1ccn2S(=O)(=O)c1ccccc1 [Example 78]', 'SIF', 80),
  ('CC(C)OCCn1c(=S)[nH]c(=O)c2c1ccn2COC(=O)CCNC(=O)CNC(=O)OC(C)(C)C [Example 9]', 'SIF', 61),
  ('COCCOCCOC(=O)OCSc1nc(=O)c2c(ccn2COC(=O)OCCOCCOC)n1CCOC(C)C [Example 104]', 'SIF', 70),
  ('CC(C)OCCn1c(=S)[nH]c(=O)c2c1ccn2COC(=O)[C@H]1CCCN1C(=O)OCC1c2ccccc2-c2ccccc21 [Example 5]', 'SIF', 76),
  ('CC(C)OCCn1c(=S)n(COC(=O)C(C)(C)C)c(=O)c2c1ccn2COC(=O)C(C)(C)C [Example 143]', 'SIF', 82),
  ('CC(C)OCCn1c(=S)[nH]c(=O)c2c1ccn2COC(=O)CCCCCCCCCCCCCCC(=O)O [Example 255]', 'SIF', 2),
  ('CC(C)OCCn1c2nc(=O)c3c1ccn3COC(=O)CCCCCCC(=O)OCS2 [Example 135]', 'SIF', 67),
  ('CC(C)OCCn1c(=S)[nH]c(=O)c2c1ccn2COC(=O)CCCCCCC(=O)OCn1ccc2c1c(=O)[nH]c(=S)n2CCOC(C)C [Example 136]', 'SIF', 2),
  ('CC(C)OCCn1c(=S)[nH]c(=O)c2c1ccn2COC(=O)CCCCCCC(=O)OCCl [Example 137]', 'SIF', 56),
  ('COC(=O)[C@H](CCCCNC(=O)[C@@H](NC(=O)OC(C)(C)C)C(C)C)NC(=O)OCn1ccc2c1c(=O)[nH]c(=S)n2CCOC(C)C [Example 111]', 'SIF', 74),
  ('CC(C)OCCn1c(=S)n(COCC[Si](C)(C)C)c(=O)c2c1ccn2COCC[Si](C)(C)C [Example 71]', 'SIF', 88),
  ('CC(C)OCCn1c(=S)[nH]c(=O)c2c1ccn2COC(=O)CCCCNC(=O)[C@@H](N)C(C)C [Example 12]', 'SIF', 94),
  ('COC(=O)[C@H](CCCCNC(=O)OC(C)(C)C)NC(=O)n1ccc2c1c(=O)[nH]c(=S)n2CCOC(C)C [Example 103]', 'SIF', 96),
  ('CC(C)OCCn1c(=S)[nH]c(=O)c2c1ccn2COC(=O)CCCCNC(=O)OC(C)(C)C [Example 7]', 'SIF', 40);
